Molecular target: HLA-A*03:01
Assay: IEDB peptide-MHC binding, purified MHC/competitive/fluorescence; bounds were set here for any values at or beyond the usual limits of such assays
Conditions: source organism: Homo sapiens
pIC50: −log10 of the molar value.
MEASURED_METRIC: pIC50

Request: Query (sequence): FPHTELANL ; field requested: pIC50
Response: ≤ 4.70

---

Target: HLA-A*33:01
Test: IEDB peptide-MHC binding, purified MHC/competitive/radioactivity; filed as Kd, often an IC50 or EC50 that approximates it; bounds were set here for any values at or beyond the usual limits of such assays
Details: source organism: Lassa virus Josiah
pKd: −log10 of the molar value.
MEASURED_METRIC: pKd

Request: Query (sequence): DQYKDLCHMH ; field requested: pKd
Response: ≤ 4.15

---

Molecular target: HLA-A*24:03
Test: IEDB peptide-MHC binding, purified MHC/direct/fluorescence; filed as Kd, often an IC50 or EC50 that approximates it; bounds were set here for any values at or beyond the usual limits of such assays
Conditions: source organism: Orthohantavirus sangassouense
pKd: −log10 of the molar value.
Entries annotated with measured pKd

Request: Query (sequence): MRNTIMASK ; field requested: pKd
Response: ≤ 4.70

Request: Query (sequence): SPGDNSAKF ; field requested: pKd
Response: ≤ 4.70

---

Target: HLA-A*01:01
Assay: IEDB peptide-MHC binding, purified MHC/direct/fluorescence; filed as Kd, often an IC50 or EC50 that approximates it; bounds were set here for any values at or beyond the usual limits of such assays
Settings: source organism: Yersinia pestis
pKd: −log10 of the molar value.
MEASURED_METRIC: pKd

Request: Query (sequence): RPQLWRYRW ; field requested: pKd
Response: ≤ 4.70

---

Target: HLA-B*39:01
Test: IEDB peptide-MHC binding, purified MHC/competitive/fluorescence; filed as Kd, often an IC50 or EC50 that approximates it; bounds were set here for any values at or beyond the usual limits of such assays
Conditions: source organism: Orthohantavirus dobravaense
pKd: −log10 of the molar value.
MEASURED_METRIC: pKd

Request: Query (sequence): MRNTIMASK ; field requested: pKd
Response: ≤ 4.70

---

Biological target: HLA-B*07:02
Experiment: IEDB peptide-MHC binding, purified MHC/direct/fluorescence; filed as Kd, often an IC50 or EC50 that approximates it; bounds were set here for any values at or beyond the usual limits of such assays
Settings: source organism: Influenza A virus (A/Puerto Rico/8/34/Mount Sinai(H1N1))
MEASURED_METRIC: Kd (nM)
Quick note: give the figure in nM, leave out the unit.

Request: Query (sequence): VPAQNAIST ; field requested: Kd
Response: 63

---

Target: HLA-B*44:02
Assay: IEDB peptide-MHC binding, purified MHC/direct/fluorescence; filed as Kd, often an IC50 or EC50 that approximates it; bounds were set here for any values at or beyond the usual limits of such assays
Settings: source organism: Mycobacterium avium 104
MEASURED_METRIC: Kd

Request: Query (sequence): IAHVRDVVM ; field requested: Kd
Response: ≥ 20 µM

---

Target: HLA-A*68:02
Experiment: IEDB peptide-MHC binding, purified MHC/competitive/radioactivity; filed as Kd, often an IC50 or EC50 that approximates it; bounds were set here for any values at or beyond the usual limits of such assays
Conditions: source organism: Dengue virus 3 Martinique/1243/1999
MEASURED_METRIC: pKd
Schema: pKd number; meaning minus log10 of the concentration expressed in molar units.

Request: Query (sequence): DTAWDFGSV ; field requested: pKd
Response: 8.82

---

Biological target: HLA-A*30:01
Test: IEDB peptide-MHC binding, purified MHC/competitive/fluorescence; filed as Kd, often an IC50 or EC50 that approximates it; bounds were set here for any values at or beyond the usual limits of such assays
Details: source organism: Influenza A virus (A/X-31(H3N2))
pKd: −log10 of the molar value.
MEASURED_METRIC: pKd

Request: Query (sequence): SHEGEGIPL ; field requested: pKd
Response: ≤ 4.70

---

Target: HLA-A*69:01
Assay: IEDB peptide-MHC binding, purified MHC/direct/fluorescence; filed as Kd, often an IC50 or EC50 that approximates it; bounds were set here for any values at or beyond the usual limits of such assays
Conditions: source organism: Salmonella enterica
MEASURED_METRIC: Kd

Request: // fetch HLA-A*69:01 Kd for AIDPRRIVA
Response: ≥ 20 µM

---

Target: HLA-A*68:02
Assay: IEDB peptide-MHC binding, purified MHC/competitive/fluorescence; filed as Kd, often an IC50 or EC50 that approximates it; bounds were set here for any values at or beyond the usual limits of such assays
Conditions: source organism: Vibrio parahaemolyticus RIMD 2210633
pKd: −log10 of the molar value.
MEASURED_METRIC: pKd

Request: Query (sequence): GTVPTDNPF ; field requested: pKd
Response: ≤ 4.70

---

Molecular target: HLA-A*03:01
Assay: IEDB peptide-MHC binding, purified MHC/competitive/fluorescence; filed as Kd, often an IC50 or EC50 that approximates it; bounds were set here for any values at or beyond the usual limits of such assays
Settings: source organism: Giardia lamblia ATCC 50803
pKd: −log10 of the molar value.
MEASURED_METRIC: pKd

Request: Query (sequence): TELPLAYER ; field requested: pKd
Response: ≤ 4.70

---

Target: HLA-B*15:01
Experiment: IEDB peptide-MHC binding, purified MHC/competitive/fluorescence; bounds were set here for any values at or beyond the usual limits of such assays
Details: source organism: Zaire ebolavirus
MEASURED_METRIC: pIC50
Schema: pIC50 number; meaning minus log10 of the concentration expressed in molar units.

VSHLTTLAT | 4.54

We next turn to a different sequence, shown below.
Request: Query (sequence): YQSYSENGM ; field requested: pIC50
Response: 4.78

---

Target: HLA-B*58:01
Experiment: IEDB peptide-MHC binding, purified MHC/competitive/radioactivity; filed as Kd, often an IC50 or EC50 that approximates it; bounds were set here for any values at or beyond the usual limits of such assays
Conditions: source organism: Dengue virus 4 Philippines/H241/1956
MEASURED_METRIC: pKd
Schema: pKd number; meaning minus log10 of the concentration expressed in molar units.

Request: // fetch HLA-B*58:01 pKd for ATGPVLTLW
Response: 9.37

---

Target: HLA-A*30:02
Experiment: IEDB peptide-MHC binding, purified MHC/competitive/radioactivity; filed as Kd, often an IC50 or EC50 that approximates it; bounds were set here for any values at or beyond the usual limits of such assays
Settings: source organism: Lassa virus Josiah
pKd: −log10 of the molar value.
MEASURED_METRIC: pKd

Request: Query (sequence): GIDVTDLFA ; field requested: pKd
Response: ≤ 4.39

---

Molecular target: HLA-B*15:09
Assay: IEDB peptide-MHC binding, purified MHC/direct/fluorescence; filed as Kd, often an IC50 or EC50 that approximates it; bounds were set here for any values at or beyond the usual limits of such assays
Details: source organism: Vibrio vulnificus YJ016
pKd: −log10 of the molar value.
MEASURED_METRIC: pKd

Request: Query (sequence): EPADHLAIM ; field requested: pKd
Response: ≤ 4.70

---

Target: HLA-A*01:01
Assay: IEDB peptide-MHC binding, purified MHC/direct/fluorescence; filed as Kd, often an IC50 or EC50 that approximates it; bounds were set here for any values at or beyond the usual limits of such assays
Conditions: source organism: Mycobacterium tuberculosis
pKd: −log10 of the molar value.
Entries annotated with measured pKd

# annotated cases, reported pKd shown
WMRGRGRAL | ≤ 4.70
GTDSNGMLW | 7.13
WEITYLGTT | ≤ 4.70

We next turn to a different sequence, shown below.
Request: Query (sequence): FHSRFVQAL ; field requested: pKd
Response: ≤ 4.70

---

Target: HLA-B*57:01
Assay: IEDB peptide-MHC binding, purified MHC/competitive/fluorescence; filed as Kd, often an IC50 or EC50 that approximates it; bounds were set here for any values at or beyond the usual limits of such assays
Settings: source organism: Giardia lamblia ATCC 50803
MEASURED_METRIC: pKd
Schema: pKd number; meaning minus log10 of the concentration expressed in molar units.

Request: Query (sequence): RTMPLSRFT ; field requested: pKd
Response: 6.43

---

Biological target: HLA-A*01:01
Test: IEDB peptide-MHC binding, purified MHC/competitive/fluorescence; bounds were set here for any values at or beyond the usual limits of such assays
Conditions: source organism: Homo sapiens
pIC50: −log10 of the molar value.
MEASURED_METRIC: pIC50

Request: Query (sequence): FPHTELANL ; field requested: pIC50
Response: ≤ 4.70

---

Molecular target: HLA-C*14:02
Test: IEDB peptide-MHC binding, purified MHC/competitive/fluorescence; filed as Kd, often an IC50 or EC50 that approximates it; bounds were set here for any values at or beyond the usual limits of such assays
Settings: source organism: Mycobacterium tuberculosis variant bovis BCG str. Pasteur 1173P2
MEASURED_METRIC: Kd (nM)
Quick note: give the figure in nM, leave out the unit.

Request: Query (sequence): FMFDYIPPV ; field requested: Kd
Response: 5.7
